Consider the following compounds and their measured cytotoxicity at 10 µM readings.
assay: Toxicity liver stage against HepG2, at 10uM; assay type: cell-based; set-up: test concentration 10 uM, cell line HepG2-A16-CD81EGFP; conditions: human, HepG2-A16-CD81EGFP cells; read-out: INHIBITION

- compound: "CC(C)CNc1cc(-c2c[nH]nc2C2CCN(C(=O)C3CC3)C2)ccn1 (stereo unspecified)"
  cytotoxicity at 10 µM (%): 83.8
- compound: "Cc1cccc(CNCCOc2ccc(S(C)(=O)=O)cc2)c1"
  cytotoxicity at 10 µM (%): -0.302
- compound: "Cn1c(Cn2cccn2)nnc1C1CCCN(c2ccncc2F)C1 (stereo unspecified)"
  cytotoxicity at 10 µM (%): -0.773
- compound: "O=S(=O)(c1ccccc1)N1CCCC(c2nccs2)C1 (stereo unspecified)"
  cytotoxicity at 10 µM (%): -23.4
- compound: "O=C1NCCCc2[nH]c(C3CCN(C(=O)C4CC4)CC3)nc21"
  cytotoxicity at 10 µM (%): -3.46
- compound: "CN(c1ncc(S(N)(=O)=O)s1)C1CCC1"
  cytotoxicity at 10 µM (%): 4.13

###

# cytotoxicity at 10 µM listing for each entry below
assay: Toxicity liver stage against HepG2, at 10uM; type: cell-based; parameters: test concentration 10 uM, cell line HepG2-A16-CD81EGFP; conditions: human, HepG2-A16-CD81EGFP cells; read-out: INHIBITION

- molecule: "Fc1ccc(Sc2ccccc2CNC2=NCCN2)cc1"
  unit-tag: "%"
  cytotoxicity at 10 µM: 18.9
- molecule: "CCN(CC)C(=O)CN1CCc2nc(C3CCNCC3)nc(NC)c2C1"
  unit-tag: "%"
  cytotoxicity at 10 µM: -5.46
- molecule: "CCn1cc(CN(C)S(=O)(=O)c2cnn(C)c2)cn1"
  unit-tag: "%"
  cytotoxicity at 10 µM: 8.16
- molecule: "CC(C#N)CSc1ccccc1NCC(=O)Nc1ccccc1 (configuration not stated)"
  unit-tag: "%"
  cytotoxicity at 10 µM: 6.24
- molecule: "CCOC(=O)[C@H]1[C@@H](O)C(=O)N(C)C12CCN(C(=O)CC(C)C)CC2"
  unit-tag: "%"
  cytotoxicity at 10 µM: -5.12
- molecule: "CC(Cn1cccn1)NC(=O)NCc1ccc(OC2CCCC2)nc1 (configuration not stated)"
  unit-tag: "%"
  cytotoxicity at 10 µM: -12.9
- molecule: "CN(Cc1ccccc1O)C(=O)Nc1cc(F)cc(N2CCCC2)c1"
  unit-tag: "%"
  cytotoxicity at 10 µM: 7.93
- molecule: "CS(=O)(=O)CCSCc1ccc(Br)c(F)c1"
  unit-tag: "%"
  cytotoxicity at 10 µM: 0.49
- molecule: "O=C(c1cccs1)N1CC[C@H]2[C@@H]1CCC(=O)N2c1cccnc1"
  unit-tag: "%"
  cytotoxicity at 10 µM: -74.3
- molecule: "C[C@H]1CN(C(=O)N(C)C)C[C@@]12CCN(c1ccsc1)C2=O"
  unit-tag: "%"
  cytotoxicity at 10 µM: -73.1
- molecule: "Cc1cccc(NS(=O)(=O)c2cc(C(=O)O)oc2C)c1"
  unit-tag: "%"
  cytotoxicity at 10 µM: -9.15
- molecule: "CCc1nnc2n1CC(CNCC1CCCC1)CC2 (configuration not stated)"
  unit-tag: "%"
  cytotoxicity at 10 µM: -3.98
- molecule: "Cc1ccc(C(=O)NCCN2CCOCC2)cc1N(C)S(C)(=O)=O"
  unit-tag: "%"
  cytotoxicity at 10 µM: 15.1
- molecule: "Cc1nc(-c2c(-c3ccccc3)ncn2[C@H]2C[C@@H](C(=O)O)N(C)C2)co1"
  unit-tag: "%"
  cytotoxicity at 10 µM: 0.024
- molecule: "COc1ccc(CNC(=O)N2CCOCC2C2CC2)cc1C (configuration not stated)"
  unit-tag: "%"
  cytotoxicity at 10 µM: 10.4
- molecule: "CC(C)c1nnc2n1CCN(Cc1cccc3c1OCCO3)C2"
  unit-tag: "%"
  cytotoxicity at 10 µM: -1.26
- molecule: "CCCN(CCC)c1ncc(S(=O)(=O)c2ccccc2)c(N)n1"
  unit-tag: "%"
  cytotoxicity at 10 µM: -2.26
- molecule: "Cc1nnc(CN2CCC(N(C)Cc3nnc(C4CC4)n3C)C2)o1 (configuration not stated)"
  unit-tag: "%"
  cytotoxicity at 10 µM: -5.36
- molecule: "Cc1cccc(OCCNC(=O)C(C)S(=O)(=O)c2ccccn2)c1 (configuration not stated)"
  unit-tag: "%"
  cytotoxicity at 10 µM: 5.76
- molecule: "Cc1cc(C(=O)N2CCn3cc(CN(C)C)nc3C2)no1"
  unit-tag: "%"
  cytotoxicity at 10 µM: -80.5
- molecule: "CO[C@H]1CN(S(=O)(=O)c2cn(C)cn2)[C@@H]2CCCO[C@H]12"
  unit-tag: "%"
  cytotoxicity at 10 µM: -132
- molecule: "CCOCCn1c(=O)[nH]c2cc(C(=O)N(C)Cc3cc(C)[nH]n3)ccc21"
  unit-tag: "%"
  cytotoxicity at 10 µM: -0.673
- molecule: "Cc1nccn1Cc1nnc(C2CCCN(c3cnccn3)C2)n1C (configuration not stated)"
  unit-tag: "%"
  cytotoxicity at 10 µM: 2.73
- molecule: "COC(=O)N1CCN(Cc2csc(-c3ncccn3)n2)CC1"
  unit-tag: "%"
  cytotoxicity at 10 µM: -7.53
- molecule: "Cc1cc(CN2CCC(CNS(=O)(=O)c3ccccc3Cl)CC2)c(C)o1"
  unit-tag: "%"
  cytotoxicity at 10 µM: 9.51
- molecule: "Cc1ccc(-c2cc(C(=O)NCCN3CCOCC3)n[nH]2)s1"
  unit-tag: "%"
  cytotoxicity at 10 µM: -6.45
- molecule: "O=C(NCc1ccco1)[C@@H]1CCO[C@@H]2CCN(C3CCOCC3)C[C@H]21"
  unit-tag: "%"
  cytotoxicity at 10 µM: -74.9
- molecule: "COc1cc(OC)cc(N2CCC(NCc3cc[nH]n3)C2)c1 (configuration not stated)"
  unit-tag: "%"
  cytotoxicity at 10 µM: 2.55
- molecule: "O=C(c1ccnc(-n2ccnc2)c1)N1CCCC(n2ccnc2)C1 (configuration not stated)"
  unit-tag: "%"
  cytotoxicity at 10 µM: 0.956
- molecule: "CCn1cc(NC(=O)NC(CO)Cc2c[nH]c3ccccc23)cn1 (configuration not stated)"
  unit-tag: "%"
  cytotoxicity at 10 µM: -7.03
- molecule: "OC(CNCCn1cccn1)c1ccc(C(F)(F)F)cc1 (configuration not stated)"
  unit-tag: "%"
  cytotoxicity at 10 µM: -5.4
- molecule: "CC(NCc1cccc(COC2CCCC2)c1)c1cnn(C)c1 (configuration not stated)"
  unit-tag: "%"
  cytotoxicity at 10 µM: 4.34
- molecule: "Cc1ccc(CNC(=O)NCc2ccco2)s1"
  unit-tag: "%"
  cytotoxicity at 10 µM: 3.47
- molecule: "COc1ccc(CNC(Cc2ccsc2)c2ccc(C)cn2)c(OC)c1 (configuration not stated)"
  unit-tag: "%"
  cytotoxicity at 10 µM: 6.36
- molecule: "CC(C)CC(O)C1CCN(C(=O)c2ccc(C(C)C)[nH]c2=O)CC1 (configuration not stated)"
  unit-tag: "%"
  cytotoxicity at 10 µM: 3.25
- molecule: "O=C1NCC[C@]12CN(Cc1ccoc1)C[C@H]2c1ccccc1"
  unit-tag: "%"
  cytotoxicity at 10 µM: 4.55
- molecule: "Cc1nn(CC(O)CN2CCc3ccccc3C2)c(=O)c(C#N)c1C (configuration not stated)"
  unit-tag: "%"
  cytotoxicity at 10 µM: 8.27
- molecule: "CCC(CC)C(=O)Nc1ccc2oc(=O)n(CCN(C)C)c2c1"
  unit-tag: "%"
  cytotoxicity at 10 µM: -13.7
- molecule: "c1cncc(-c2noc(CNC3CCc4ncnn4C3)n2)c1 (configuration not stated)"
  unit-tag: "%"
  cytotoxicity at 10 µM: -5.57
- molecule: "CCn1c(C)cc(C(=O)N2CCc3nnc(N)cc3C2)c1C"
  unit-tag: "%"
  cytotoxicity at 10 µM: -12.2
- molecule: "N#Cc1c(CN2CCCC2Cn2cccn2)cn2ccccc12 (configuration not stated)"
  unit-tag: "%"
  cytotoxicity at 10 µM: -4.67
- molecule: "CSCCC(=O)N1CCC(c2nccn2CCN(C)C)CC1"
  unit-tag: "%"
  cytotoxicity at 10 µM: -4.17
- molecule: "COc1ccccc1-c1nc(C(=O)N2CCOCC2)n2ccncc12"
  unit-tag: "%"
  cytotoxicity at 10 µM: 11.9
- molecule: "O=C(CSc1ccccn1)NCc1ccc2c(c1)CCC(=O)N2"
  unit-tag: "%"
  cytotoxicity at 10 µM: 20
- molecule: "CCC(CC)C(=O)NS(=O)(=O)c1ccc(C#N)cc1C(F)(F)F"
  unit-tag: "%"
  cytotoxicity at 10 µM: -15.9
- molecule: "Cc1cccc(CN2C(=O)CC[C@H]3[C@@H]2CCN3CC(=O)N(C)C)n1"
  unit-tag: "%"
  cytotoxicity at 10 µM: -71.7
- molecule: "O=C(Cn1nnn(-c2cccs2)c1=O)NCC1CCOC1 (configuration not stated)"
  unit-tag: "%"
  cytotoxicity at 10 µM: -40.4

Data provenance is ChEMBL document CHEMBL4513216.
